Attribution: PubChem BioAssay (NCI)

Assignment: determine reported growth inhibition for the given molecules.
- testProtocol: NCI Yeast Anticancer Drug Screen. Data for the rad14 strain (AID 159);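 note: 0% = growth of vehicle-treated control cultures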
- assayContext: S. cerevisiae rad14 strain growth inhibition; at 3.7 µM; stronger effect = higher value
The panel holds about 79,000 compounds, 15% with a hit somewhere; the sample as a whole holds those more often.
Response body: numeric value in %, unit text excluded.

Query string: // lookup growth inhibition for `CC1=C(SCc2ccccc2)C(=O)c2ccccc2C1=O`
Result string: -37

Query string: Repeat for the following molecule: C[CH2][Sn]([CH2]C)([O]C(=O)C(N)Cc1ccccc1)[O]C(=O)C(N)Cc1ccccc1 (stereo not given)
Result string: -11

Query string: Repeat for the following molecule: `COc1ccc2[nH]cc([C@@H]3C4CCC(C4)[C@H]3NCc3cccc(CN[C@H]4C5CCC(C5)[C@@H]4c4c[nH]c5ccc(OC)cc45)c3)c2c1`
Result string: -23

Query string: Repeat for the following molecule: `c1ccc(Cc2cc(-c3ccccc3)n[nH]2)cc1`
Result string: -4

Query string: Repeat for the following molecule: `O=c1c2ccccc2nc(-c2ccccc2)n1O`
Result string: 59

---

Assignment: determine reported growth inhibition for the given molecules.
- testProtocol: NCI Yeast Anticancer Drug Screen. Data for the mlh1 rad18 strain (AID 175)
- assayContext: S. cerevisiae mlh1 rad18 strain growth inhibition; at 5.0 µM (retest, dose inferred, filed as 0.5); stronger effect = higher value
This is part of a sample that, as a whole, favours compounds with a hit. Of some 79,000 tested, about 15% had one in any assay.
Response body: numeric value in %, unit text excluded.

Query string: // lookup growth inhibition for c1ccc2c(OCC3CO3)cccc2c1 (stereo not given)
Result string: 14

Query string: Repeat for the following molecule: `COc1ccc(/C=C/c2sc3ccccc3[n+]2CCCCI)cc1OC`
Result string: -9

Query string: Repeat for the following molecule: `COc1ccc(/C=C2\NC(=S)N(/C=C3\C(=O)Oc4ccccc4C3=O)C2=O)cc1`
Result string: 4

Query string: Repeat for the following molecule: `O=C1C(Br)=C(c2ccccc2)O/C1=C/C(=O)c1ccc(Br)cc1`
Result string: -16

Query string: Repeat for the following molecule: `CCOC(=O)c1cc([N+](=O)[O-])c(Sc2ncnc3nc[nH]c23)c([N+](=O)[O-])c1`
Result string: 55

Query string: Repeat for the following molecule: `CCCC/C=C/C(C)(C(=O)OCC)C(=O)OCC`
Result string: 11

Query string: Repeat for the following molecule: `c1ccc2c(c1)sc1c3cnccc3ccc21`
Result string: -171

Query string: Repeat for the following molecule: Oc1ccc2c(c1)C(O)CCCC2 (stereo not given)
Result string: 87

Query string: Repeat for the following molecule: `COC(=O)Nc1cn2ccc(C(Cl)=C(Cl)Cl)cc2n1`
Result string: 65

Query string: Repeat for the following molecule: `CC[N+](CC)(CC)c1ccccc1`
Result string: 30

Query string: Repeat for the following molecule: `Cc1cc(NCCCCCCCCNc2cc(C)nc3cc(N)ccc23)c2ccc(N)cc2n1`
Result string: 7

Query string: Repeat for the following molecule: `c1ccc(CCN2CCc3ccccc3C2)cc1`
Result string: 11

Query string: Repeat for the following molecule: `O=C1C(=O)c2ccccc2C(O)=C1C(C1=C(O)c2ccccc2C(=O)C1=O)c1ccc(Cl)cc1`
Result string: -5

Query string: Repeat for the following molecule: `CCCCc1ccc(-n2c(C)c(COC(=O)NC)c(COC(=O)NC)c2C)cc1`
Result string: 18

Query string: Repeat for the following molecule: `CC(/C=C/c1ccccc1)=N\NC(N)=S`
Result string: 49

Query string: Repeat for the following molecule: CN(C)c1ccc(C2CC(C)(O)Oc3cc4c(cc32)OCO4)cc1 (stereo not given)
Result string: 23

Query string: Repeat for the following molecule: `CC(C)(C)CC(C)(C)c1cc(O)c(O)c(CN2CCCCC2)c1`
Result string: 3

Query string: Repeat for the following molecule: `N/C(=N/N=C/c1cc(Br)cc(Br)c1O)NO`
Result string: 16

Query string: Repeat for the following molecule: CCOC(=O)C1=C(C)NC(C)=C(C(=O)OCCNC(=O)c2ccc(N=[N+]=[N-])cc2)C1c1ccccc1C(F)(F)F (stereo not given)
Result string: 2

Query string: Repeat for the following molecule: COc1cc(C2SCC(=O)N2c2ccc(-c3ccc(-n4c(-c5ccccc5)nc5ccccc5c4=O)cc3)cc2)ccc1O (stereo not given)
Result string: -14

Query string: Repeat for the following molecule: `Cc1ccccc1N=C(NO)c1ccccc1`
Result string: -122

Query string: Repeat for the following molecule: `Cc1cc(=O)oc2c(C)c3occc(=O)c3cc12`
Result string: 11

Query string: Repeat for the following molecule: `CSc1nc(C)c(CCOC(C)=O)c(N=P(c2ccccc2)(c2ccccc2)c2ccccc2)n1`
Result string: 0

Query string: Repeat for the following molecule: `CC(C)(CCCCC(C)(C)[N+](C)(C)C)[N+](C)(C)C`
Result string: 10

Query string: Repeat for the following molecule: `CCOC(=O)C(C(=O)OCC)=P(c1ccccc1)(c1ccccc1)c1ccccc1`
Result string: 0
